Every entry's value here was drawn from patent US4560679A.

A collection of compounds and their measured LD50 at 168 h
# experiment: acute toxicity
# measurement.conditions: mouse, in vivo; ICR female mice; oral dosage; observed 7 days; read-out: Acute Toxicity LD50, Oral Dosage

C[Si](C)(C)CCSCCNC(=O)c1cccs1 > 2000 mg/kg
C[Si](C)(C)CCSCCNC1CCCCC1 825 mg/kg
CC(=O)NCCSCC[Si](C)(C)C 1000 to 2000 mg/kg
CNCCSCC[Si](C)(C)C 800 mg/kg
Cc1ccc(S(=O)(=O)NCCSCC[Si](C)(C)C)cc1 > 3000 mg/kg

Task item: Specify measured LD50 at 168 h for "C[Si](C)(C)CCSCCNC(=O)c1ccco1" .
Reply: > 2000 mg/kg
